Catalogue of compounds with associated remaining activity at 1 µM
Molecular target: MLK1 (Homo sapiens, UniProt P80192)
Sequence (P80192 whole entry): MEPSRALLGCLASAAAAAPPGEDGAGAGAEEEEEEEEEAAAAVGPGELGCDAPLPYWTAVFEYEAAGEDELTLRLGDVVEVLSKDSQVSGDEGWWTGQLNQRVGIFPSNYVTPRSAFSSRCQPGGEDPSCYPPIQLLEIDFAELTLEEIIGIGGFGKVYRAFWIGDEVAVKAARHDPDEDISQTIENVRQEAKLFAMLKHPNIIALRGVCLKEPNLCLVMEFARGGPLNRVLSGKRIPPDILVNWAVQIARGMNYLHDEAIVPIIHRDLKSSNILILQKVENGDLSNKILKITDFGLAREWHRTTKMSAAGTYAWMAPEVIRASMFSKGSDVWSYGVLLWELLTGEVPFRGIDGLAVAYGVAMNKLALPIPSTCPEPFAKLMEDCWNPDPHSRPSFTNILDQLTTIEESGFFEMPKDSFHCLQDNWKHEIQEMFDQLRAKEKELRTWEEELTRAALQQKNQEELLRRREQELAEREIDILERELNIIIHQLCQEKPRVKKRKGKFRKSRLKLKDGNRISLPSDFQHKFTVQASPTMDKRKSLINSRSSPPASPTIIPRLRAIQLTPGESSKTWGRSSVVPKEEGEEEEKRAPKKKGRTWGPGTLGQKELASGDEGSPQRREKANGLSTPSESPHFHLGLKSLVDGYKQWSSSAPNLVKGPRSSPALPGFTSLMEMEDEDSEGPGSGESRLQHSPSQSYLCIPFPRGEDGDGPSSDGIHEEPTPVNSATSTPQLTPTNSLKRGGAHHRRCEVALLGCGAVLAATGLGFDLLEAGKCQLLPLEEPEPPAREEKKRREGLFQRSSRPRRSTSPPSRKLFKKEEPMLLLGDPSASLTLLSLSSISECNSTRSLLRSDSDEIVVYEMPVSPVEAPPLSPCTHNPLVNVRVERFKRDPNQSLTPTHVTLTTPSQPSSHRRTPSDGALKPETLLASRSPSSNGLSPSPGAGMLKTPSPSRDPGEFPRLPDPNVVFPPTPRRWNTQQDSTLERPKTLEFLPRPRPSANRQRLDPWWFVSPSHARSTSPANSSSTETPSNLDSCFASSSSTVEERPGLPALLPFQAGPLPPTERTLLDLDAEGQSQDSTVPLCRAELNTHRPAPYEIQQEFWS
Assay: Kinase profiling (radiometric filter-binding)
Type: biochemical
Conditions: MLK1, 1 µM inhibitor; read-out: Residual activity, %
Square brackets hold non-standard residues; d marks the D form. Peptide text beside a SMILES is read from it. * marks the point of attachment. X3 = O=C(CCCCCNCc1nc2c(sc3cc(Br)cnc32)c(=O)[nH]1)*

Compound | Unit label | remaining activity at 1 µM
N=C(N)NCCC[C@@H](NC(=O)CCCCCNCc1nc2c(sc3cc(Br)cnc32)c(=O)[nH]1)C(=O)N[C@H](CCCNC(=N)N)C(=O)N[C@H](CCCNC(=N)N)C(=O)N[C@H](CCCNC(=N)N)C(=O)N[C@H](CCCNC(=N)N)C(=O)N[C@H](CCCNC(=N)N)C(=O)N[C@H](CCCCN)C(N)=O [ARC-3126, BPTP-Ahx-(D-Arg)6-D-Lys-NH2] (X3-[dR][dR][dR][dR][dR][dR][dK]-NH2) | % | 122
N=C(N)NCCC[C@@H](NC(=O)CCCCCNC(=O)Cn1cnc2c(I)c(I)c(I)c(I)c21)C(=O)N[C@H](CCCNC(=N)N)C(=O)N[C@H](CCCNC(=N)N)C(=O)N[C@H](CCCNC(=N)N)C(=O)N[C@H](CCCNC(=N)N)C(=O)N[C@H](CCCNC(=N)N)C(=O)N[C@H](CCCCN)C(N)=O [ARC-3125, TIBI-CH2-C(=O)-Ahx-(D-Arg)6-D-Lys-NH2] | % | 100

====

Measured remaining activity at 1 µM, listed per entry.
Target: ROCK 2 (Homo sapiens)
Sequence (O75116 whole entry): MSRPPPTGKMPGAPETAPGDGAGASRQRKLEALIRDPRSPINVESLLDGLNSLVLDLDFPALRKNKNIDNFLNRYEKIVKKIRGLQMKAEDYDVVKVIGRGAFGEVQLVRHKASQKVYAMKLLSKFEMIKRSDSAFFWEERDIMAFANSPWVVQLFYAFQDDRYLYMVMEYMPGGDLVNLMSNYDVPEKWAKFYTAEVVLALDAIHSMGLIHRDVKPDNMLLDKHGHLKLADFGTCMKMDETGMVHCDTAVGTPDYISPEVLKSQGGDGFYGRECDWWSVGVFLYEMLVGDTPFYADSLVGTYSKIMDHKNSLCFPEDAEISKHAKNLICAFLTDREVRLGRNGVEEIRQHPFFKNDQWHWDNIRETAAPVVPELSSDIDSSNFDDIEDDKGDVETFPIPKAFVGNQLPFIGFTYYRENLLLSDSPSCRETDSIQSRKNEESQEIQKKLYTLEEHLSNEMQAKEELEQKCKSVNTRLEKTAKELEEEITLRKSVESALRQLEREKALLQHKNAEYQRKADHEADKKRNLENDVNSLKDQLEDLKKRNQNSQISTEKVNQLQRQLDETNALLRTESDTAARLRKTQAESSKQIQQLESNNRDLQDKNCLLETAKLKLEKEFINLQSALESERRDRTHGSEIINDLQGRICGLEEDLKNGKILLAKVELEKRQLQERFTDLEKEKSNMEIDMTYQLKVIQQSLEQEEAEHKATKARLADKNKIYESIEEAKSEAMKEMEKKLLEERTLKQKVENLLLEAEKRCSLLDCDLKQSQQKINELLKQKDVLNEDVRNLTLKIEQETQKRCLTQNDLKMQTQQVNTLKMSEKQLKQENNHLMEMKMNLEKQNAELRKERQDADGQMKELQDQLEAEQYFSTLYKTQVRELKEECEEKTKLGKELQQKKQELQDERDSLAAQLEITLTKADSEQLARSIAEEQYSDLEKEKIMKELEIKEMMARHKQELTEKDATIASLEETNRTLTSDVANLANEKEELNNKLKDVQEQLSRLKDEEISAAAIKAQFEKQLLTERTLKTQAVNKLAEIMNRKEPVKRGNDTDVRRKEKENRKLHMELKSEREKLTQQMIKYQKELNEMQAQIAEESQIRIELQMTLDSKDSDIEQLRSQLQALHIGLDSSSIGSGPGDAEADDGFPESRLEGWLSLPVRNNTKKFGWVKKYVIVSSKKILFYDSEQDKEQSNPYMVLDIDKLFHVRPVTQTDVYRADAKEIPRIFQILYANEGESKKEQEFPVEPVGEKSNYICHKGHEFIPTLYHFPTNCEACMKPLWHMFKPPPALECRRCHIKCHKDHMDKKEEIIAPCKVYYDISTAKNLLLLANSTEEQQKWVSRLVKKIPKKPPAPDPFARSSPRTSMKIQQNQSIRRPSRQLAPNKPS
Assay: Kinase profiling (radiometric filter-binding)
Type: biochemical
Details: ROCK 2, 1 µM inhibitor; read-out: Residual activity, %
Square brackets hold non-standard residues; d marks the D form. Peptide text beside a SMILES is read from it. * marks the point of attachment. X3 = O=C(CCCCCNCc1nc2c(sc3cc(Br)cnc32)c(=O)[nH]1)*
Result type: remaining activity at 1 µM (%)

Compound | Unit label | Endpoint value
N=C(N)NCCC[C@@H](NC(=O)CNC(=O)[C@@H](CCCNC(=N)N)NC(=O)[C@@H](CCCNC(=N)N)NC(=O)CCCCCCCNCc1nc2c(sc3ccc(Br)cc32)c(=O)[nH]1)C(=O)N[C@H](CCCCN)C(N)=O | % | 61
N=C(N)NCCC[C@@H](NC(=O)CCCCCNCc1nc2c(sc3cc(Br)cnc32)c(=O)[nH]1)C(=O)N[C@H](CCCNC(=N)N)C(=O)N[C@H](CCCNC(=N)N)C(=O)N[C@H](CCCNC(=N)N)C(=O)N[C@H](CCCNC(=N)N)C(=O)N[C@H](CCCNC(=N)N)C(=O)N[C@H](CCCCN)C(N)=O [ARC-3126, BPTP-Ahx-(D-Arg)6-D-Lys-NH2] (X3-[dR][dR][dR][dR][dR][dR][dK]-NH2) | % | 65
N=C(N)NCCC[C@@H](NC(=O)CCCCCNC(=O)Cn1cnc2c(I)c(I)c(I)c(I)c21)C(=O)N[C@H](CCCNC(=N)N)C(=O)N[C@H](CCCNC(=N)N)C(=O)N[C@H](CCCNC(=N)N)C(=O)N[C@H](CCCNC(=N)N)C(=O)N[C@H](CCCNC(=N)N)C(=O)N[C@H](CCCCN)C(N)=O | % | 5
N=C(N)NCCC[C@@H](NC(=O)CNC(=O)[C@@H](CCCNC(=N)N)NC(=O)[C@@H](CCCNC(=N)N)NC(=O)CCCCCCCNCc1nc2c(sc3cc(Br)cnc32)c(=O)[nH]1)C(=O)N[C@H](CCCCN)C(N)=O | % | 114
N=C(N)NCCC[C@@H](NC(=O)CNC(=O)[C@@H](CCCNC(=N)N)NC(=O)[C@@H](CCCNC(=N)N)NC(=O)Cn1cc(CNCc2nc3c(sc4ccc(Br)cc43)c(=O)[nH]2)nn1)C(=O)N[C@H](CCCCN)C(N)=O | % | 62
